Listed below: MIC values for each entry.
System: Klebsiella pneumoniae KY4275 ATCC10031
MEASUREMENT NOTES: MIC, agar dilution method, pH 8.0
Assay type: cell-based
RUN PARAMETERS: ATCC10031; pH 8.0; Klebsiella pneumoniae KY4275; read-out: Minimum inhibition concentration (MIC), KP

COMPOUND: CNCCN(C)[C@H]1[C@@H](O)[C@H](O[C@H]2O[C@H]([C@H](C)N)CC[C@H]2N)[C@@H](N)[C@H](O)[C@@H]1OC [Compound 26, 4-N-(2-methylaminoethyl)fortimicin B]
VALUE OPERATOR: =
MIC / µg/mL: 5
//
COMPOUND: CNCCC(O)CN(C)[C@H]1[C@@H](O)[C@H](O[C@H]2O[C@H]([C@H](C)N)CC[C@H]2N)[C@@H](N)[C@H](O)[C@@H]1OC (stereo partly shown) [Compound 30]
VALUE OPERATOR: =
MIC / µg/mL: 0.32
//
COMPOUND: CO[C@H]1[C@@H](O)[C@H](N)[C@@H](O[C@H]2O[C@H]([C@H](C)N)CC[C@H]2N)[C@H](O)[C@@H]1N(C)C(C)=O [Compound 5, 4-N-acetylfortimicin B]
VALUE OPERATOR: >
MIC / µg/mL: 200
//
COMPOUND: CO[C@H]1[C@@H](O)[C@H](N)[C@@H](O[C@H]2O[C@H]([C@H](C)N)CC[C@H]2N)[C@H](O)[C@@H]1N(C)CCCCN [Compound 21, 4-N-(4-aminobutyl)fortimicin B]
VALUE OPERATOR: =
MIC / µg/mL: 5
//
COMPOUND: CO[C@H]1[C@@H](O)[C@H](N)[C@@H](O[C@H]2O[C@H]([C@H](C)N)CC[C@H]2N)[C@H](O)[C@@H]1N(C)C(=O)[C@@H](O)CCN [Compound 14]
VALUE OPERATOR: =
MIC / µg/mL: 5
//
COMPOUND: CO[C@H]1[C@@H](O)[C@H](N)[C@@H](O[C@H]2O[C@H]([C@H](C)N)CC[C@H]2N)[C@H](O)[C@@H]1N(C)CCCN [Compound 20, 4-N-(3-aminopropyl)fortimicin B]
VALUE OPERATOR: =
MIC / µg/mL: 80
//
COMPOUND: CCCCCN(C)[C@H]1[C@@H](O)[C@H](O[C@H]2O[C@H]([C@H](C)N)CC[C@H]2N)[C@@H](N)[C@H](O)[C@@H]1OC [Compound 19, 4-N-(n-pentyl)fortimicin B]
VALUE OPERATOR: >
MIC / µg/mL: 200
//
COMPOUND: CCCN(C)[C@H]1[C@@H](O)[C@H](O[C@H]2O[C@H]([C@H](C)N)CC[C@H]2N)[C@@H](N)[C@H](O)[C@@H]1OC [Compound 17, 4-N-(n-propyl)fortimicin B]
VALUE OPERATOR: =
MIC / µg/mL: 100
//
COMPOUND: CCCCN(C)[C@H]1[C@@H](O)[C@H](O[C@H]2O[C@H]([C@H](C)N)CC[C@H]2N)[C@@H](N)[C@H](O)[C@@H]1OC [Compound 18, 4-N-(n-butyl)fortimicin B]
VALUE OPERATOR: >
MIC / µg/mL: 200
//
COMPOUND: CO[C@H]1[C@@H](O)[C@H](N)[C@@H](O[C@H]2O[C@H]([C@H](C)N)CC[C@H]2N)[C@H](O)[C@@H]1N(C)C(=O)CNC(N)=O [Compound 3, 4-N-hydantoylfortimicin B, reference compound]
VALUE OPERATOR: =
MIC / µg/mL: 0.63
